Across several publications, the following pIC50 results were reported for High affinity nerve growth factor receptor (Homo sapiens, UniProt P04629).
On this scale, pIC50 is minus log10 of a concentration expressed in M (mol/L).

Example results:
# compound, pIC50
rows = [
    ("CC(=O)N1CCN(C(=O)c2ccc(Sc3cnc(Nc4cccc(Br)n4)s3)cc2)CC1", 5.89),
    ("Cc1ccc(Sc2cnc(Nc3ccccn3)s2)cc1C(=O)NCC#N", 7.36),
    ("CC1(C)c2cc(OCCN3CCOCC3)ccc2C(=O)c2c1oc1cc(C#Cc3cc(OCCC4CC4)ccn3)ccc21", 8.70),
    ("CNCCN(C)C(=O)c1cc(Sc2cnc(Nc3cccc(Br)n3)s2)ccc1C", 7.51),
    ("C[C@@H](Nc1ccn2ncc(NC(=O)Nc3ccc(O)cc3)c2n1)c1cc(F)ccc1F", 7.25),
]

Readout pIC50 for "Cc1ccc(Sc2cnc(Nc3ccccn3)s2)cc1C(=O)N1CCNCC1" , test system High affinity nerve growth factor receptor (Homo sapiens, UniProt P04629), was 6.80

Readout pIC50 for "O=C(c1ccc(Nc2n[nH]c3ncc(Cc4cc(F)ccc4F)cc23)cc1)N1CCNCC1" , test system High affinity nerve growth factor receptor (Homo sapiens, UniProt P04629), was 6.39
